System: Saccharomyces cerevisiae
run_description: protein stability index of tFT-peptide fusion (C-terminal peptide) (PSI (0-1 scale)); higher = more stable (slower turnover)
condition_set: genetic background: wild type; temperature: 30 C
The following sequences are listed with their measured protein stability index values.
value_kind: protein stability index

[[record]]
sequence_chain = "ELDEIANSLENL [TPM2 C-terminal 12 aa]"
observed_result = 0.683

[[record]]
sequence_chain = "YSYSSPKYTFPC [YKL147C C-terminal 12 aa]"
observed_result = 0.669

[[record]]
sequence_chain = "NILKVEKRAVLE [PMT1 C-terminal 12 aa]"
observed_result = 0.659

[[record]]
sequence_chain = "VFWKLKSRKLRI [MCH1 C-terminal 12 aa]"
observed_result = 0.418

[[record]]
sequence_chain = "NFFESYRTISCL [YPL038W-A C-terminal 12 aa]"
observed_result = 0.326

[[record]]
sequence_chain = "AFSDLSTLENAS [ATG42 C-terminal 12 aa]"
observed_result = 0.723

[[record]]
sequence_chain = "EGPVTIILDSDQ [DTD1 C-terminal 12 aa]"
observed_result = 0.702

[[record]]
sequence_chain = "PLKDLDPNAFRG [YOX1 C-terminal 12 aa]"
observed_result = 0.692

[[record]]
sequence_chain = "DPKLYFDATILS [TDA3 C-terminal 12 aa]"
observed_result = 0.691

[[record]]
sequence_chain = "KQYIEPESVKPN [ABD1 C-terminal 12 aa]"
observed_result = 0.722

[[record]]
sequence_chain = "FLIWRKKVSRNK [YOR329W-A C-terminal 12 aa]"
observed_result = 0.727

[[record]]
sequence_chain = "FAAPIKPSTRAG [YLR347W-A C-terminal 12 aa]"
observed_result = 0.71

